Test system: Plasmodium berghei
Experiment: Screen against P. berghei liver stage (PbLuc), transformed with Luciferase, at 10uM
Format: functional, HepG2
Details: tested at 10 uM
Screen size: about 69,000 compounds; about 8,600 (12%) showed an effect of 50% or more. The full list was thinned out, with strong results kept by preference.
Measured parameter: INHIBITION (%)
Answer format: numeric, % implied, no suffix.

Some molecules with known INHIBITION results, for comparison:
COCCNCC1(O)CCCN(Cc2ccc(F)c(F)c2)C1=O (centres undefined); 6.65
Cc1nnc(CNC(=O)C2CSCCC(=O)N2)o1 (centres undefined); -5.22
CC(C)N(C)C[C@H]1OC[C@@H]2CCN(Cc3cccc(C#N)c3)C[C@@H]21; 23.3
COCCC(=O)NCCc1nc(N(C)C)ncc1-c1ccncc1; 2.5
Cn1cc(CNCC2(O)CCCN(Cc3ccc(F)c(F)c3)C2=O)cn1 (centres undefined); -34

(Q) Note down INHIBITION recorded for CNC(=O)Cc1csc(NC(=O)C2CSCCC(=O)N2)n1 (centres undefined)
(A) 50.2

(Q) Note down INHIBITION recorded for `Cc1cnn(CC(=O)N2CCCN(c3ncccc3C#N)CC2)c1`
(A) -14.7

(Q) Note down INHIBITION recorded for `COc1cccc([C@@H]2CCN(Cc3ccc4ccccc4n3)C[C@H]2O)c1`
(A) -18.4

(Q) Note down INHIBITION recorded for `CC(=O)N1C[C@@H](c2ccsc2)[C@@H]2CN(Cc3ccccc3)CC[C@@H]21`
(A) 16.9

(Q) Note down INHIBITION recorded for CN1CCCCC1c1ncc2c(n1)CCN(Cc1ccc(Cl)c(F)c1)C2 (centres undefined)
(A) 58.1
